# Test system: CRL-7250
# protocol.notes: Cytotoxic Profiling of Annotated Libraries Using Quantitative High-Throughput Screening (AID 1296008); also: nearly all actives have a fitted effect of over 60% in size
# experimental.context: Five cell lines viability, CellTiter-Glo ATP luminescence, 48-72 h
Inconclusive results are not listed. Active and inactive are the calls of the source. Calls follow the shape of the dose curve; as a rule, active = well fitted inhibition curve with a large enough effect; inconclusive = small, poorly fitted or top-dose-only effect; inactive = flat fitted curve, though single readings scatter.
I would appreciate it if you answered using one of these outcomes: yes = active, no = inactive

O=S(=O)(F)Cc1ccccc1	no
COc1cccc2c1[C@]13CCN(CC4CC4)[C@H](C2)[C@]1(OC)CCC(=O)C3	no
COc1ccc2c(c1)CN(C)CC2c1ccc(Cl)c(Cl)c1 (stereo unspecified)	no
Oc1ccc2c3c1O[C@H]1c4[nH]c5c(c4C[C@@]4(O)[C@@H](C2)N(CC2CC2)CC[C@]314)C[C@@]1(O)[C@H]2Cc3ccc(O)c4c3[C@@]1(CCN2CC1CC1)[C@H]5O4	no
Cc1cc(O)ccc1Cl	no

In: Identify the outcome logged in this assay for the compound shown: C[C@@H]1CC[C@@]2(OC1)O[C@H]1C[C@H]3[C@@H]4CC=C5C[C@@H](O[C@@H]6O[C@H](CO)[C@@H](O[C@@H]7O[C@@H](C)[C@H](O)[C@@H](O)[C@@H]7O)[C@H](O)[C@@H]6O[C@@H]6O[C@@H](C)[C@H](O)[C@@H](O)[C@@H]6O)CC[C@]5(C)[C@@H]4CC[C@]3(C)[C@@H]1[C@H]2C
Out: yes

In: Look up the recorded call for O=C(Nc1ccncc1)C(=O)c1cn(Cc2ccc(Cl)cc2)c2ccccc12 in this test.
Out: yes

----------
# protocol.notes: Quantitative High-Throughput drug screen in 47 multiple myeloma cell lines against the NCATS MIPE library collection: VP6_DJ cell viability assay (AID 1919867); also: potency is read from the fitted curve at half-maximal effect; nearly all actives have a fitted effect of over 40% in size
# experimental.context: ATP luminescence, 48 h; series mostly up to 45.8 µM
Records with an inconclusive call do not appear. Calls of active or inactive are those of the source. Calls come from the whole dose curve; as a rule, active = well fitted cell-killing curve with a large enough effect; inconclusive = small, poorly fitted or top-dose-only effect, or effect the other way; inactive = no such curve, though single readings can be large or run the other way.
Respond only with the outcome that fits, drawn from active, inactive

COc1ccc(N(C(=O)Oc2c(C)cccc2C)c2ccnc(Nc3ccc(N4CCN(C)CC4)cc3)n2)c(OC)c1	active
CO[C@H]1CCC(O[C@H]2C[C@H]([C@]3(C)CC[C@]4(C[C@H](O)[C@@H](C)[C@@H]([C@@H](C)C=C(C)C(=O)[C@H](C)C[C@H](C)C(=O)O)O4)O3)O[C@]3(O[C@@H]([C@H]4O[C@@](O)(CO)[C@H](C)C[C@H]4C)C[C@H]3C)[C@H]2C)O[C@H]1C (some centres undefined)	active
COC[C@H]1OC(=O)c2coc3c2[C@@]1(C)C1=C(C3=O)[C@@H]2CC[C@H](O)[C@@]2(C)C[C@@H]1OC(C)=O	active
C=C[C@@H]1CN2CCC1C[C@H]2[C@H](O)c1ccnc2ccccc12 (some centres undefined)	active
CC=C(C)C(=O)O[C@H]1C(C)=C2[C@@H]3OC(=O)[C@@](C)(O)[C@@]3(O)[C@@H](OC(=O)CCC)C[C@](C)(OC(C)=O)[C@@H]2[C@@H]1OC(=O)CCCCCCC	active

In: # fetch the recorded call for COc1ccc2c(c[n+](C)c3c4cc5c(cc4ccc23)OCO5)c1OC here
Out: active

In: Give the logged outcome of this assay for the following molecule: CCOC(=O)Nc1ccc(NCc2ccc(F)cc2)cc1N
Out: active

In: So what was the verdict on CC[C@@]1(O)C(=O)OCc2c1cc1n(c2=O)Cc2cc3ccccc3nc2-1 in this test?
Out: active

In: Dear all, I need the recorded test outcome for CC(O)=C(C#N)C(=O)Nc1cc(Br)ccc1Br , thank you.
Out: active

In: # outcome recorded in this test, key = COc1ccc(CC2NCCc3cc(OC)c(OC)cc32)cc1OC (centres undefined)
Out: active

----------
# protocol.notes: Quantitative High-Throughput drug screen in 47 multiple myeloma cell lines against the NCATS MIPE library collection: ARD_JJKsccE7 cell viability assay (AID 1918929;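 as to viability: 100% = DMSO-only wells and 0% = media-only wells without cells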)
# experimental.context: ARD myeloma cell line viability, CellTiter-Glo, 48 h; series mostly up to 45.8 µM
Inconclusive results are not listed. The source made the active and inactive calls. The call rests on the fitted dose curve; in most records, active means well fitted cell-killing curve with a large enough effect; inconclusive means small, poorly fitted or top-dose-only effect, or effect the other way; inactive means no such curve, though single readings can be large or run the other way.
// one of True = active, False = inactive, no free text

Worked examples, 2 compounds total:
COc1ccc2c(c1)CN(C)CC2c1ccc(Cl)c(Cl)c1 (stereo not drawn)	True
Cc1c(C(=O)Nc2cccc(C(F)(F)F)c2)cc(-c2ccccc2)n1CCCN1CCOCC1	True

Query compound follows.
In: How was COc1cccc2c1[C@]13CCN(CC4CC4)[C@H](C2)[C@]1(OC)CCC(=O)C3 classified in this test?
Out: False

----------
# protocol.notes: Quantitative High-Throughput drug screen in 47 multiple myeloma cell lines against the NCATS MIPE library collection: KMS27_JCRB cell viability assay (AID 1918970); also: nearly all actives have a fitted effect of over 30% in size; also: potency is read from the fitted curve at half-maximal effect
# experimental.context: KMS27 myeloma cells, CellTiter-Glo ATP viability, 48 h; series mostly up to 45.8 µM
Results filed as inconclusive are left out. Active and inactive are the calls of the source. The call rests on the fitted dose curve; in most records, active means well fitted cell-killing curve with a large enough effect; inconclusive means small, poorly fitted or top-dose-only effect, or effect the other way; inactive means no such curve, though single readings can be large or run the other way.
property: Potency

COc1cccc2c1[C@]13CCN(CC4CC4)[C@H](C2)[C@]1(OC)CCC(=O)C3	inactive
O=C(O)CNC(=O)c1c(O)c2ccccc2n(Cc2ccccc2)c1=O	inactive
CCOP(=O)(OCC)C(C)NC(=O)N(CCCl)N=O (stereo unspecified)	inactive
NC1=NC(=O)N2CC12 (stereo unspecified)	7.43 µM (active)
COc1ccc(C(=O)c2c(C)n(CCN3CCOCC3)c3cc(I)ccc23)cc1	13.2 µM (active)

In: Recorded Potency of CCCN1CCO[C@@H]2c3cc(O)ccc3OC[C@@H]21 , please.
Out: inactive

In: Look at this compound and give its reported Potency. C1=C2CCCN[C@H]2[C@@H]2C[C@H]1[C@@H]1CCCCN1C2
Out: inactive

----------
# protocol.notes: High-throughput drug toxicity screening in the BPDCN cell line Gen2.2 (AID 1224824);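 also: cells exposed to compounds for 48 h before reading; 100% = DMSO and 0% = bortezomib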
# experimental.context: Gen2.2 BPDCN cells; at 45.8 µM (top of the series)
property: cell viability, % of control (lower = more cytotoxic) (%)
Output spec: scalar in %, unitless text.

Solved cases (5 shown):
CN[C@@H]1Cc2cccc3[nH]c(=O)n(c23)C1	231
O=c1cccc2n1CC1CNC[C@H]2C1	51.5
Cc1c(C(=O)c2cccc3ccccc23)c2cccc3c2n1[C@H](CN1CCOCC1)CO3	17.7
CN(C)NC(=O)CCC(=O)O	121
CC1=NN=C(c2ccc(N)cc2)c2cc3c(cc2C1)OCO3	244

In: # input molecule: CC[C@@]1(O)C(=O)OCc2c1cc1n(c2=O)Cc2cc3ccccc3nc2-1 ; wanted: its cell viability, % of control (lower = more cytotoxic)
Out: 4.89

In: What cell viability, % of control (lower = more cytotoxic) value was documented for this molecule, CC=C(C)C(=O)N[C@@H](c1ccccc1)[C@@H](O)C(=O)O[C@H]1C[C@@]2(O)[C@@H](OC(=O)c3ccccc3)[C@@H]3[C@]4(OC(C)=O)CO[C@@H]4C[C@H](O)[C@@]3(C)C(=O)[C@H](OC(C)=O)C(=C1C)C2(C)C ?
Out: 47

In: Reported cell viability, % of control (lower = more cytotoxic) for CN1[C@H]2CC(O)C[C@H]1[C@H]1O[C@H]12 (some centres undefined) : what is it?
Out: 21.9

In: Which cell viability, % of control (lower = more cytotoxic) is reported for this molecule? O=C(Oc1ccc([N+](=O)[O-])cc1)N1CCN(Cc2cccc(Oc3ccccc3)c2)CC1
Out: 151

----------
# system.name: Nicotinamide N-methyltransferase (Homo sapiens)
# protocol.notes: Confirmatory Screen for Target Class Profiling of Small Molecule Inhibitors of Methyltransferases (AID 1745852)
# experimental.context: MTase-Glo luminescence, SAH detection, recombinant enzyme; measured here: NNMT max response; stronger effect = lower value
property: activity (%)
Give the quantity in %, number only.

Previously resolved entries follow.
C[C@@H](N)Cc1cnc[nH]1	-6.87
NCCc1c[nH]c2ccccc12	-8.81

In: Given Cn1cnc(CCN)c1 , state its recorded activity.
Out: -8.03

In: Look up activity: CNCCc1c[nH]c2ccc(O)cc12
Out: -11.4

In: Requested read-out: activity. Entry: NC1CCc2cc(O)c(O)cc2C1 (stereo unspecified)
Out: -14.5

In: Dear colleague, I am looking for the recorded activity of the following compound: Cc1[nH]nc2ccc(-c3cncc(OC[C@@H](N)Cc4c[nH]c5ccccc45)c3)cc12
Out: -70.5

----------
# protocol.notes: Quantitative High-Throughput drug screen in 47 multiple myeloma cell lines against the NCATS MIPE library collection: KMS27_JCRB cell viability assay (AID 1918970); also: nearly all actives have a fitted effect of over 30% in size
# experimental.context: KMS27 myeloma cells, CellTiter-Glo ATP viability, 48 h; series mostly up to 45.8 µM
Inconclusive results are not listed. The source made the active and inactive calls. Calls follow the shape of the dose curve; as a rule, active = well fitted cell-killing curve with a large enough effect; inconclusive = small, poorly fitted or top-dose-only effect, or effect the other way; inactive = no such curve, though single readings can be large or run the other way.
Assign a class; possible classes are t for active, f for inactive

# count of solved cases: 3
CCN1CCN(C(=O)Cc2ccc(Nc3ncc(F)c(Nc4ccc(C(=O)Nc5ccccc5Cl)cc4)n3)cc2)CC1	t
C[C@]12CC[C@H](O)CC1=CC[C@H]1[C@H]3CCC(=O)[C@@]3(C)CC[C@@H]12	f
O=C(N[C@@H](COc1ccc2[nH]c(=O)[nH]c2c1)c1ccccc1)c1cccn(Cc2ccc(F)c(F)c2)c1=O	t

In: What did this assay record as the result for Cc1[nH]nc2ccc(-c3cncc(OC[C@@H](N)Cc4c[nH]c5ccccc45)c3)cc12 ?
Out: f

In: Test call, this compound: COc1cc([C@@H]2c3cc4c(cc3[C@@H](O)C3COC(=O)C32)OCO4)cc(OC)c1O (some centres not stated)
Out: t

In: // param item: CC=C(C)C(=O)N[C@@H](c1ccccc1)[C@@H](O)C(=O)O[C@H]1C[C@@]2(O)[C@@H](OC(=O)c3ccccc3)[C@@H]3[C@]4(OC(C)=O)CO[C@@H]4C[C@H](O)[C@@]3(C)C(=O)[C@H](OC(C)=O)C(=C1C)C2(C)C ; yields the recorded call
Out: t

In: Test call, this compound: CC(C)(C)[C@]1(O)C[C@@H]2OC(=O)C[C@@]23C(=O)O[C@@H]2OC(=O)[C@H](O)C213 (some centres not stated)
Out: f
